Listed below: OD450 values for each entry.
- tested.on: T1, Peptide 4: Biotin-AGGGGSGGGGSGGGGSAAA-Tyr-acid (N-terminal biotin; C-terminal acid; no PC)
- T1 construct: control peptide without PC
- T1 peptide: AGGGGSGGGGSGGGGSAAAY
- method.notes: scFv ELISA

- binder: "PcOxP_DB01_D10 (scFv, V domains shown, scFv in periplasmic extract) VH: EVQLLESGGGLVQPGGSLRLSCAASGFTDSDFYMEWVRQAPGKGLEWVAASRNKANDYTTEYADSVKGRFTISRDNSKNTLYLQMNSLRAEDTAVYYCARDYYGSSYWYFDVWGQGTLVTVSS VL: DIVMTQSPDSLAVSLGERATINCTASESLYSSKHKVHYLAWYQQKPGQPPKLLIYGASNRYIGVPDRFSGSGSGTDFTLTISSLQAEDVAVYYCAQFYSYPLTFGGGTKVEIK"
  OD450, OD450: 0.05
- binder: "PcOxP_DB01_G06 (scFv, V domains shown, scFv in periplasmic extract) VH: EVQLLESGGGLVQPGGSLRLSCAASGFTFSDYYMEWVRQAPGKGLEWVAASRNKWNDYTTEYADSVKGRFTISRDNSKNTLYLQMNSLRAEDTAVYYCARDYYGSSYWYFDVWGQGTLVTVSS VL: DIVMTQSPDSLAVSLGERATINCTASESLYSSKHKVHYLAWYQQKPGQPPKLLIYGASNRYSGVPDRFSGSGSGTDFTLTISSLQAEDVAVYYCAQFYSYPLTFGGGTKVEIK"
  OD450, OD450: 0.05
